# test_protocol: PK following bolus and 2-hr continuous SC administration of 30% LD-Tyr (Example 18)
# Type: in vivo, domestic pig
# condition_notes: female, pig, plasma, sc, analyte LD-Tyr; 30/1 % w/v; bolus volume 0.7 mL, bolus dose 210/7 mg, daily dose 510/17 mg; bolus and 2-hr continuous SC administration
Where a SMILES comes first, the peptide text is derived from it. [ ]: non-standard residue; d: D form. Dopa = N[C@@H](Cc1ccc(O)c(O)c1)C(=O)O
measured_endpoint: Tmax (h)
Answers are plain numbers, in h.

Task: Reported Tmax for N[C@@H](Cc1ccc(O)c(O)c1)C(=O)N[C@@H](Cc1ccc(O)cc1)C(=O)O [LD-Tyr] (H-[Dopa]-Tyr-OH) : what is it?
Output: 1.3

---

# test_protocol: PK of high concentration LD-Tyr formulations comprising TRIS, 0.5% CD (Example 15B)
# Type: in vivo, domestic pig
# condition_notes: female, pig, plasma, sc, analyte LD-Tyr; LD-Tyr/CD 44/0.5 % w/v, daily dose 2700/45 mg; 18-hour continuous SC infusion; n = 1
Where a SMILES comes first, the peptide text is derived from it. [ ]: non-standard residue; d: D form. Dopa = N[C@@H](Cc1ccc(O)c(O)c1)C(=O)O
measured_endpoint: Cmax
The reply should read as a number followed by its unit.

Task: Reported Cmax for N[C@@H](Cc1ccc(O)c(O)c1)C(=O)N[C@@H](Cc1ccc(O)cc1)C(=O)O [LD-Tyr] (H-[Dopa]-Tyr-OH) : what is it?
Output: 49.6 ng/mL

---

# test_protocol: PK following bolus and 2-hr continuous SC administration of 30% LD-Tyr (Example 18)
# Type: in vivo, domestic pig
# condition_notes: female, pig, plasma, sc, analyte LD-Tyr; 30/1 % w/v; bolus volume 0.7 mL, bolus dose 210/7 mg, daily dose 510/17 mg; bolus and 2-hr continuous SC administration
Where a SMILES comes first, the peptide text is derived from it. [ ]: non-standard residue; d: D form. Dopa = N[C@@H](Cc1ccc(O)c(O)c1)C(=O)O
measured_endpoint: Cmax (ng/mL)
Give bare numbers, in ng/mL.

Task: Reported Cmax for N[C@@H](Cc1ccc(O)c(O)c1)C(=O)N[C@@H](Cc1ccc(O)cc1)C(=O)O [LD-Tyr] (H-[Dopa]-Tyr-OH) : what is it?
Output: 573

---

# test_protocol: in vivo
# condition_notes: female, pig, sc, analyte LD-Tyr
Where a SMILES comes first, the peptide text is derived from it. [ ]: non-standard residue; d: D form. Dopa = N[C@@H](Cc1ccc(O)c(O)c1)C(=O)O
measured_endpoint: Tmax (h)
Numbers only, in h.

Task: Reported Tmax for N[C@@H](Cc1ccc(O)c(O)c1)C(=O)N[C@@H](Cc1ccc(O)cc1)C(=O)O [LD-Tyr] (H-[Dopa]-Tyr-OH) : what is it?
Output: 10.4

---

# test_protocol: PK of formulations with varying concentrations of LD-Tyr and CD (Example 16)
# Type: in vivo, domestic pig
# condition_notes: female, pig, plasma, sc, 2700 mg/day, analyte LD-Tyr; LD-Tyr/CD 30/[…] w/v, daily dose 2700/135 mg; 18-hour continuous SC infusion; n = 5
# Method: A series of PK and local site reaction studies was completed in domestic pigs using several concentrations LD-Tyr formulations comprising varying amounts of CD, as detailed in Table 37, and dosing regimens, as detailed in Table 38. The PK profile of LD-Tyr, as well as the LD resulting therefrom, was determined following 18-hour continuous SC infusion to female domestic pigs. […]
Where a SMILES comes first, the peptide text is derived from it. [ ]: non-standard residue; d: D form. Dopa = N[C@@H](Cc1ccc(O)c(O)c1)C(=O)O
measured_endpoint: Tmax

Task: Reported Tmax for N[C@@H](Cc1ccc(O)c(O)c1)C(=O)N[C@@H](Cc1ccc(O)cc1)C(=O)O [LD-Tyr] (H-[Dopa]-Tyr-OH) : what is it?
Output: 12.4 h
